The measurements presented in this section are drawn from the supplement of paper PMC13380429.

system: Vero E6 infected with SARS-CoV-2; assay: inhibition of SARS-CoV-2 cytopathic effect; higher = more antiviral protection, active = above 15; conditions: 833.33 nM; 48 h
Measured inhibition of SARS-CoV-2 cytopathic effect by item
Value expressed in %; do not type the unit.

{"compound": "CCc1ccc(Cc2ccc3c(c2)[C@]2(OC3)O[C@H](CO)[C@@H](O)[C@H](O)[C@H]2O)cc1 [tofogliflozin]", "test_result": 1.52}
{"compound": "CCC1(C2=NCCN2)Cc2ccccc2O1 (stereo not given) [efaroxan]", "test_result": -2.93}

Recorded inhibition of SARS-CoV-2 cytopathic effect for COc1cc(CCc2cc(NC(=O)c3ccc(N4CC(C)NC(C)C4)cc3)n[nH]2)cc(OC)c1 (stereo not given) on Vero E6 infected with SARS-CoV-2 was -1.56

The value of inhibition of SARS-CoV-2 cytopathic effect recorded for N[C@@H](CC(=O)Nc1ccc(Oc2cc(F)c(F)cc2Br)cc1)C(=O)O when tested on Vero E6 infected with SARS-CoV-2 reads -3.56

Record NC(=O)c1nc(F)cnc1O [Favipiravir] / Vero E6 infected with SARS-CoV-2, inhibition of SARS-CoV-2 cytopathic effect recorded as 1.38
